- tested-system: human toll like receptor 7 (hTLR7) (Homo sapiens, UniProt Q9NYK1)
- Sequence (Q9NYK1 27-1049): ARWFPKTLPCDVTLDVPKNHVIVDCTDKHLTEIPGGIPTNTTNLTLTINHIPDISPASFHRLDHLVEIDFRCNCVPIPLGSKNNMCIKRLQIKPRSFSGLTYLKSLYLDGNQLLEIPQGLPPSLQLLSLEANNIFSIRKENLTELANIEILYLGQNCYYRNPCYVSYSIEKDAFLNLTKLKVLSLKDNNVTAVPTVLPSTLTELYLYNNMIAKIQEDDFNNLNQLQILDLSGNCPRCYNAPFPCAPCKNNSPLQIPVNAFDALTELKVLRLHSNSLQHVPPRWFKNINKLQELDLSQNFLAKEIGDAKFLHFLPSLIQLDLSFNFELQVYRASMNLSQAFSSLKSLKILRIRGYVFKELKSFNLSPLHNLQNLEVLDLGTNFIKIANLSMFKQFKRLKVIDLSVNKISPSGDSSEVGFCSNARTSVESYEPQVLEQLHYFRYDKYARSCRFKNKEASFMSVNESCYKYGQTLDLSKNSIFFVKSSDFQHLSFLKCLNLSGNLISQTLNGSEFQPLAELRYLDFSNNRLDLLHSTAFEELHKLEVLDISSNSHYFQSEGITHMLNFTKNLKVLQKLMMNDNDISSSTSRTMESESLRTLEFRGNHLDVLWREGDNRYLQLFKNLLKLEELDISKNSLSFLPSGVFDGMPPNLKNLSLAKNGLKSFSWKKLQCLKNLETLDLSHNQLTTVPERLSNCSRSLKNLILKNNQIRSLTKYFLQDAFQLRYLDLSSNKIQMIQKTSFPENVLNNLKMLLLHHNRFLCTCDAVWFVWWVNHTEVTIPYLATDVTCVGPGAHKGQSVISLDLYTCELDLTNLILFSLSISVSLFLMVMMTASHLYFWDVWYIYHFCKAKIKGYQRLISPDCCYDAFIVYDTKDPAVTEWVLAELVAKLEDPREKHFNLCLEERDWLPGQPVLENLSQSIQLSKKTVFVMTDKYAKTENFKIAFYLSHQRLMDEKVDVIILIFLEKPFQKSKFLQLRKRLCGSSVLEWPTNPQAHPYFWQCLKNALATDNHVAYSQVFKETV
- assay-method-text: hTLR7 in-vitro functional assay (HEK-Blue hTLR7 SEAP reporter)
- settings: HEK-Blue hTLR7 cells, overnight incubation
reported-endpoint: EC50 (nM)
The reply should be a number in nM, with the unit left off.

| smiles-record | EC50 [nM] |
| --- | --- |
| CCCCc1nc2c(N)nc3cc(CCCN4CCN(C(=O)CCOCCOCCOCCOCCOCCOCCOCCOCCOCCOCCOCCOCCOCCOCCOCCOCCOCCOCCOCCOCCOCCOCCOCCOCCOCCOCCOCCOCCOCCOCCOCCOCCOCCOCCOCCOCCNC(=O)CCOCCOCCOCCOCCNC(=O)CCCOc5c(C)c(C)c6c(c5C)CC[C@@](C)(CCC[C@H](C)CCC[C@H](C)CCCC(C)C)O6)CC4)ccc3c2n1CC(C)(CO)CO | 134 |
| CCCCc1nc2c(N)nc3cc(CCCN4CCN(CCCOCCOCCOCCOCCOCCOCCOCCOCCOCCOCCOCCOCCOCCOCCOCCOCCOCCOCCOCCOCCNC(=O)O[C@H]5CC[C@@]6(C)C(=CC[C@H]7[C@@H]8CC[C@H]([C@H](C)CCCC(C)C)[C@@]8(C)CC[C@@H]76)C5)CC4)ccc3c2n1CC(C)(CO)CO | 140 |

Here is another compound to look at.
Input line: Please tell me: EC50 of CCCCc1nc2c(N)nc3cc(CCCN4CCN(C(=O)CCOCCOCCOCCOCCOCCOCCOCCOCCOCCOCCOCCOCCOCCOCCOCCOCCOCCOCCOCCOCCOCCOCCOCCOCCNC(=O)CCOCCOCCOCCOCCOCCOCCOCCOCCOCCOCCOCCOCCOCCOCCOCCOCCOCCOCCOCCOCCOCCOCCOCCOCCNC(=O)O[C@H]5CC[C@@]6(C)C(=CC[C@H]7[C@@H]8CC[C@H]([C@H](C)CCCC(C)C)[C@@]8(C)CC[C@@H]76)C5)CC4)ccc3c2n1CC(C)(CO)CO , system human toll like receptor 7 (hTLR7) (Homo sapiens, UniProt Q9NYK1)?
Output line: 150

Source listed as patent US20250135006A1.
